Assay: Plasma protein binding in mouse at 10 uM assessed as bound fraction
Type: ADME, cell-free
Settings: read-out: PPB (converted)
attributeMeasured: fraction unbound at 10 µM
Numbers only.

Ask: Using the record for C#C[C@@]1(O)[C@@H](COC(Cc2ccc(N3CCCNC3=O)cc2)(C(=O)O)C(=O)O)O[C@@H](n2cnc3c(N)nc(Cl)nc32)[C@@H]1O , report its fraction unbound at 10 µM.
Result: 0.37

---

Experiment: AUC (0 to 24 hrs) in CD rat at 200 mg/kg, po measured for 24 hrs by LC-MS/MS analysis
Format: ADME, organism-based
Parameters: dose 200 mg/kg, time 24 hrs, route po
Details: in vivo
attributeMeasured: AUC(0-t) at 24 h (ng·h/mL)
Numbers only, in ng·h/mL.

Ask: Using the record for C#C[C@@]1(O)[C@@H](COC(Cc2ccc(N3CCCNC3=O)cc2)(C(=O)O)C(=O)O)O[C@@H](n2cnc3c(N)nc(Cl)nc32)[C@@H]1O , report its AUC(0-t) at 24 h.
Result: 6090

---

Molecular target: UniProtKB P21589
Experiment: Inhibition of recombinant human CD73
attributeMeasured: pIC50
Answers are plain numbers, as −log10 of the molar value.

[[record]]
smiles = "CN(C(=O)c1ccccc1)c1ccc(CC(OC[C@H]2O[C@@H](n3cnc4c(N)nc(Cl)nc43)[C@@H](F)[C@@H]2O)(C(=O)O)C(=O)O)cc1"
assayresult = 8.05


Dear reader, for each entry below, please note its pIC50.
1. Nc1nc(Cl)nc2c1ncn2[C@@H]1O[C@H](COC(Cc2ccccc2)(C(=O)O)C(=O)O)[C@@H](O)[C@@H]1F
2. Nc1nc(Cl)nc2c1ncn2[C@@H]1O[C@H](COC(Cc2ccccc2)(C(=O)O)C(=O)O)[C@@H](O)[C@H]1O
3. Nc1ncnc2c1ncn2[C@@H]1O[C@H](COP(=O)(O)CP(=O)(O)O)[C@@H](O)[C@H]1O

Result:
1: 6.80; 2: 7.00; 3: 5.22

---

Molecular target: 5'-nucleotidase (Homo sapiens, UniProt P21589)
Sequence (P21589 whole entry, the tested form may be a part): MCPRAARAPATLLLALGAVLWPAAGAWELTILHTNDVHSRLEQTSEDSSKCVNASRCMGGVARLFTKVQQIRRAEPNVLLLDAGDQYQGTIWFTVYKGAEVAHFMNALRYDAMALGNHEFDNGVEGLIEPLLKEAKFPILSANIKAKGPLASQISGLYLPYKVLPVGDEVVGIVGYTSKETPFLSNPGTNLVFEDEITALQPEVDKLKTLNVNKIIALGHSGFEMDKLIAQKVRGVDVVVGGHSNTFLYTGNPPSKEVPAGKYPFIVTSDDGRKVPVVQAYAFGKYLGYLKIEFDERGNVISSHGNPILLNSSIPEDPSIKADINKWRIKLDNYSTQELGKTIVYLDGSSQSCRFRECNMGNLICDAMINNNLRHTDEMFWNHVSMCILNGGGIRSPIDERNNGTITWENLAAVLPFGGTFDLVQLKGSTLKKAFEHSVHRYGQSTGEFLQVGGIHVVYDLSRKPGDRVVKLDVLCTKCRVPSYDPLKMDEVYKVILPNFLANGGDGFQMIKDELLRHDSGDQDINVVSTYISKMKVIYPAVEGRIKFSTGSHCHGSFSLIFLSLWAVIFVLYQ
Assay: Inhibition of soluble C-terminal 6His-tagged recombinant human CD73 (27 to 547 residues) expressed in CHO cells incubated for 1 hr by malachite green based spectrophotometer assay
Assay type: cell-based
attributeMeasured: pIC50
Give bare numbers, as −log10 of the molar value.

Take a look at these entries with their results.
[[record]]
smiles = "C#C[C@@]1(O)[C@@H](COC(Cc2ccccc2)(C(=O)O)C(=O)O)O[C@@H](n2cnc3c(N(C)C)cc(Cl)nc32)[C@@H]1O"
attributemeasured = "pIC50"
assayresult = 8.68

[[record]]
smiles = "C#C[C@@]1(O)[C@@H](COC(Cc2ccccc2)(C(=O)O)C(=O)O)O[C@@H](n2cnc3c(NC(C)C)cc(Cl)nc32)[C@@H]1O"
attributemeasured = "pIC50"
assayresult = 8.70


Ask: Using the record for CC[C@@]1(O)[C@@H](COC(Cc2ccccc2)(C(=O)O)C(=O)O)O[C@@H](n2cnc3c(N)nc(Cl)nc32)[C@@H]1O , report its pIC50.
Result: 6.70

---

Experiment: Drug concentration in mouse plasma at 50 mg/kg, po administered as single dose measured after 24 hrs by LC/MS analysis
Format: ADME, organism-based
attributeMeasured: concentration at 24 h

Ask: Using the record for C#C[C@@]1(O)[C@@H](COC(Cc2ccc(N3CCCNC3=O)cc2)(C(=O)O)C(=O)O)O[C@@H](n2cnc3c(N)nc(Cl)nc32)[C@@H]1O , report its concentration at 24 h.
Result: > 1 nM

---

Biological target: 5'-nucleotidase (Mus musculus)
Sequence (Q61503 whole entry): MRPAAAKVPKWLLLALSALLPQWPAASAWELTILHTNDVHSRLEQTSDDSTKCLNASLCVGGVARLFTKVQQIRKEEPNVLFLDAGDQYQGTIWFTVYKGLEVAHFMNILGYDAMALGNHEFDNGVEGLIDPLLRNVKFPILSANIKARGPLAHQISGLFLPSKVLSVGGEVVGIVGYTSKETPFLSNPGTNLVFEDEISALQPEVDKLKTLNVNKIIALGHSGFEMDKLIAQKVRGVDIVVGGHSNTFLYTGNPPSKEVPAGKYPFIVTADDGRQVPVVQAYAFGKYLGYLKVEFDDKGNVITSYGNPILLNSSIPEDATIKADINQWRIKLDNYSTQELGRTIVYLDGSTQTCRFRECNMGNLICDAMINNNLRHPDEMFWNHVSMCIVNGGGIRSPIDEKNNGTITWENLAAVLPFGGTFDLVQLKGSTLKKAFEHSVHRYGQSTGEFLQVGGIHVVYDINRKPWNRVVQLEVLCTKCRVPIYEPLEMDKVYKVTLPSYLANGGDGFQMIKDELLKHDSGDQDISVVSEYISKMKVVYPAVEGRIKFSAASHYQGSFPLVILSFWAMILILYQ
Experiment: Inhibition of CD73 in mouse plasma incubated for 5 mins in presence of 15N5-AMP by LC/MS analysis
Type: cell-free
attributeMeasured: IC50 (nM)
One number for each entry, in nM.

Ask: Please state recorded IC50 (tested on 5'-nucleotidase (Mus musculus)) of C#C[C@@]1(O)[C@@H](COC(Cc2ccc(N3CCCNC3=O)cc2)(C(=O)O)C(=O)O)O[C@@H](n2cnc3c(N)nc(Cl)nc32)[C@@H]1O
Result: 1.2

---

Assay: Tmax in CD rat at 500 mg/kg, po measured for 24 hrs by LC-MS/MS analysis
Type: ADME, organism-based
Settings: in vivo
attributeMeasured: Tmax (min)
Give bare numbers, in min.

Ask: Using the record for C#C[C@@]1(O)[C@@H](COC(Cc2ccc(N3CCCNC3=O)cc2)(C(=O)O)C(=O)O)O[C@@H](n2cnc3c(N)nc(Cl)nc32)[C@@H]1O , report its Tmax.
Result: 18

---

Assay: Tmax in CD rat at 200 mg/kg, po measured for 24 hrs by LC-MS/MS analysis
Type: ADME, organism-based
Conditions: in vivo
attributeMeasured: Tmax

Ask: Using the record for C#C[C@@]1(O)[C@@H](COC(Cc2ccc(N3CCCNC3=O)cc2)(C(=O)O)C(=O)O)O[C@@H](n2cnc3c(N)nc(Cl)nc32)[C@@H]1O , report its Tmax.
Result: 48 min

---

Target: 5'-nucleotidase (Homo sapiens)
Assay: Competitive inhibition of soluble C-terminal 6His-tagged recombinant human CD73 (27 to 547 residues) expressed in CHO cells assessed as inhibition constant incubated for 1 hr by malachite green based spectrophotometer assay
Assay type: cell-based
attributeMeasured: Ki

Ask: Using the record for C#C[C@@]1(O)[C@@H](COC(Cc2ccc(N3CCCNC3=O)cc2)(C(=O)O)C(=O)O)O[C@@H](n2cnc3c(N)nc(Cl)nc32)[C@@H]1O , report its Ki.
Result: 0.038 nM

---

Give measured pIC50 for each item. Keep answers brief.
Biological target: 5'-nucleotidase (Homo sapiens, UniProt P21589)
Assay: Inhibition of cell surface anchored CD73 (unknown origin) expressed in human SK-MEL-28 cells incubated for 30 mins by malachite green assay
Type: cell-based
Numbers only, as −log10 of the molar value.

[[record]]
smiles = "C[C@@]1(O)[C@@H](COC(Cc2ccccc2)(C(=O)O)C(=O)O)O[C@@H](n2cnc3c(N)nc(Cl)nc32)[C@@H]1O"
assayresult = 6.77


Next compound, please.
Ask: Using the record for Nc1nc(Cl)nc2c1ncn2[C@@H]1O[C@H](COC(Cc2ccccc2)(C(=O)O)C(=O)O)[C@@H](O)[C@H]1O , report its pIC50.
Result: 6.36

---

Experiment: Drug concentration in CD rat plasma at 50 to 500 mg/kg, po measured for 24 hrs by LC-MS/MS analysis
Type: ADME, organism-based
Conditions: dose 50-500 mg/kg
attributeMeasured: concentration at 24 h

Ask: Using the record for C#C[C@@]1(O)[C@@H](COC(Cc2ccc(N3CCCNC3=O)cc2)(C(=O)O)C(=O)O)O[C@@H](n2cnc3c(N)nc(Cl)nc32)[C@@H]1O , report its concentration at 24 h.
Result: > 3 nM

---

Test: Drug concentration in tumor of mouse implanted with mouse EG7 cells at 10 to 50 mg/kg, po bid administered for 20 days and measured after 16 hrs post-last dose by LC/MS analysis
Type: ADME, organism-based, Neoplasm
Conditions: dose 10-50 mg/kg, time 20 day, read-out: Ct
attributeMeasured: concentration at 480 h

Ask: Using the record for C#C[C@@]1(O)[C@@H](COC(Cc2ccc(N3CCCNC3=O)cc2)(C(=O)O)C(=O)O)O[C@@H](n2cnc3c(N)nc(Cl)nc32)[C@@H]1O , report its concentration at 480 h.
Result: > 3 nM

---

Test: Plasma protein binding in rat at 10 uM assessed as bound fraction
Format: ADME, cell-free
Conditions: read-out: PPB (converted)
attributeMeasured: fraction unbound at 10 µM
One number for each entry.

Ask: Using the record for C#C[C@@]1(O)[C@@H](COC(Cc2ccc(N3CCCNC3=O)cc2)(C(=O)O)C(=O)O)O[C@@H](n2cnc3c(N)nc(Cl)nc32)[C@@H]1O , report its fraction unbound at 10 µM.
Result: 0.29

These entries and their values trace back to ChEMBL document CHEMBL5316268.
